Value source: ChEMBL document CHEMBL2385013

Task for the reader: assign each of the following molecules its reported Papp.
assayInfo: Permeability of the compound at pH 5 by PAMPA
Type: ADME
testParameters: read-out: permeability
The reply should be a number in ×10⁻⁶ cm/s, with the unit left off.

// sample O=c1[nH]c2cc(-c3cccc(Cl)c3)ccc2c2nc(-c3c(F)cccc3Cl)[nH]c12 , its Papp was 29

The value of Papp measured for the molecule O=c1[nH]c2cc(-c3ccccc3)ccc2c2nc(-c3c(F)cccc3Cl)[nH]c12 turned out to be 30

---

assayInfo: Volume of distribution at steady state in rat at 1 mg/kg, iv
Assay type: ADME, organism-based
Design: dose 1 mg/kg, route intravenous
testParameters: in vivo, read-out: Vdss
readout: Vd
Hi, when you answer, please include the unit after the number. Thanks!

// O=c1[nH]c2cc(-c3ccccc3)ccc2c2nc(-c3c(F)cccc3Cl)[nH]c12 : Vd value = 1.4 L/kg

---

assayInfo: Permeability of the compound at pH 7.4 by PAMPA
Format: ADME
testParameters: read-out: permeability
readout: Papp

For O=c1[nH]c2cc(-c3ccccc3)ccc2c2nc(-c3ccccc3Cl)[nH]c12 the compound record lists Papp as > 30 ×10⁻⁶ cm/s

Field Papp (entry O=c1[nH]c2cc(-c3cccc(Cl)c3)ccc2c2nc(-c3c(F)cccc3Cl)[nH]c12 ) reads > 30 ×10⁻⁶ cm/s

Sure, the documented Papp for O=c1[nH]c2cc(-c3ccccc3)ccc2c2nc(-c3c(F)cccc3Cl)[nH]c12 is > 30 ×10⁻⁶ cm/s

Please fill in: Papp reported for O=c1[nH]c2cc(Br)ccc2c2[nH]c(-c3ccccc3Cl)nc12 = 26 ×10⁻⁶ cm/s

---

assayInfo: AUC in rat at 1 mg/kg, iv
Assay type: ADME, organism-based
Set-up: dose 1 mg/kg, route intravenous
testParameters: plasma
readout: AUC (ng·h/mL)
Please state the figure in ng·h/mL; there is no need to write the unit.

Quick note, AUC for O=c1[nH]c2cc(-c3ccccc3)ccc2c2nc(-c3c(F)cccc3Cl)[nH]c12 landed at 728

---

assayInfo: Cmax in rat at 10 mg/kg, po
Format: ADME, organism-based
Set-up: dose 10 mg/kg, route oral
testParameters: in vivo
readout: Cmax (ng/mL)
Entry rule: numbers only, all in ng/mL.

// sample O=c1[nH]c2cc(-c3ccccc3)ccc2c2nc(-c3c(F)cccc3Cl)[nH]c12 , its Cmax was 472
